tested-system: T1, rHuman ErbB2/Fc Chimera, CF (R&D Systems Cat#1129-ER) (human, UniProt P04626 23-652)
T1 construct: Bought recombinant protein; also called human epidermal growth factor 2 receptor; Fc part of the bought chimera not given
procedure-summary: ECL multispot (MSD) assay, antigen spotted on plate, 20 nM Fab;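 note: purified Fab bound to plate-spotted antigen for 1 h at 20 °C, labelled detection antibody added, ratio of antigen ECL signal to same-well blank, ratio ≥4 counted as binder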
reported-property: ECL signal/blank ratio (read-out not given)

What does the record list as ECL signal/blank ratio (read-out not given) for Fab VH3-23_IGHD2-21*01>3_IGHJ6*01 H100E/S108P/Y113G D62A & V2-13_IGLJ2*01 (Fab, V domains shown, Tested as a Fab made in E. coli; also called EPG D62A) VH: EVQLLESGGGLVQPGGSLRLSCAASGFTFSSYAMSWVRQAPGKGLEWVSSISGSGGSTYYAASVKGRFTISRDNSKNTLYLQMNSLRAEDTAVYYCAKEEIVVVIAIPYYYYGYGMDVWGQGTLVTVSS VL: SSELTQDPAVSVALGQTVRITCQGDSLRSYYASWYQQKPGQAPVLVIYGKNNRPSGIPDRFSGSSSGNTASLTITGAQAEDEADYYCNSRDSSGNHLVVFGGGTKLTVL ?
21.7

What does the record list as ECL signal/blank ratio (read-out not given) for Fab VH3-23_IGHD2-21*01>3_IGHJ6*01 H100E/S108P/Y113G A61T & V2-13_IGLJ2*01 (Fab, V domains shown, Tested as a Fab made in E. coli; also called EPG A61T) VH: EVQLLESGGGLVQPGGSLRLSCAASGFTFSSYAMSWVRQAPGKGLEWVSSISGSGGSTYYTDSVKGRFTISRDNSKNTLYLQMNSLRAEDTAVYYCAKEEIVVVIAIPYYYYGYGMDVWGQGTLVTVSS VL: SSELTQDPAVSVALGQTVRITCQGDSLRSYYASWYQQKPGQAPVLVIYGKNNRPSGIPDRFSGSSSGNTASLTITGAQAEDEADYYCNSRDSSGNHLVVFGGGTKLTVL ?
11.2

What does the record list as ECL signal/blank ratio (read-out not given) for Fab VH3-23_IGHD2-21*01>3_IGHJ6*01 H100E/S108P/Y113G Y60A & V2-13_IGLJ2*01 (Fab, V domains shown, Tested as a Fab made in E. coli; also called EPG Y60A) VH: EVQLLESGGGLVQPGGSLRLSCAASGFTFSSYAMSWVRQAPGKGLEWVSSISGSGGSTYAADSVKGRFTISRDNSKNTLYLQMNSLRAEDTAVYYCAKEEIVVVIAIPYYYYGYGMDVWGQGTLVTVSS VL: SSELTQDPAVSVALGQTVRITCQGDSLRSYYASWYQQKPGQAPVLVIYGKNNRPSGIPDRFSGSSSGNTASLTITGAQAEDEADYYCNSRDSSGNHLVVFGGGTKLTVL ?
11.5

What does the record list as ECL signal/blank ratio (read-out not given) for Fab VH3-23_IGHD2-21*01>3_IGHJ6*01 H100E/S108P/Y113G T58A & V2-13_IGLJ2*01 (Fab, V domains shown, Tested as a Fab made in E. coli; also called EPG T58A) VH: EVQLLESGGGLVQPGGSLRLSCAASGFTFSSYAMSWVRQAPGKGLEWVSSISGSGGSAYYADSVKGRFTISRDNSKNTLYLQMNSLRAEDTAVYYCAKEEIVVVIAIPYYYYGYGMDVWGQGTLVTVSS VL: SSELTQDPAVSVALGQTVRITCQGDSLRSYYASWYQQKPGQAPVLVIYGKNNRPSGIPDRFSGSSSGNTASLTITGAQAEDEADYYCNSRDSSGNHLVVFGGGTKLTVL ?
15.9

What does the record list as ECL signal/blank ratio (read-out not given) for Fab VH3-23_IGHD2-21*01>3_IGHJ6*01 H100E/S108P/Y113G Y59A & V2-13_IGLJ2*01 (Fab, V domains shown, Tested as a Fab made in E. coli; also called EPG Y59A) VH: EVQLLESGGGLVQPGGSLRLSCAASGFTFSSYAMSWVRQAPGKGLEWVSSISGSGGSTAYADSVKGRFTISRDNSKNTLYLQMNSLRAEDTAVYYCAKEEIVVVIAIPYYYYGYGMDVWGQGTLVTVSS VL: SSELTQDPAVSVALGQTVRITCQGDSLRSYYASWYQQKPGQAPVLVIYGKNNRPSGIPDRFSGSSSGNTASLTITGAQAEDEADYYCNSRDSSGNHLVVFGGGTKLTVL ?
1.6
